FYI, the data here is from paper PMC12064818.

target: NLuc (Oplophorus gracilirostris, UniProt Q9GV45, A31E/A60N/A81I/F95D/I117V/K70R/L54V/L99Q/M102K/N193R/P142E/Q151K/Q38R/Q45L/V71I/Y165I); construct: His tag (inferred from IMAC purification); made in house; host or cells: E. coli; format: biochemical; settings: - ATP
Sequence (Q9GV45 other isoform, or with tags, fused parts or gaps with the stated changes): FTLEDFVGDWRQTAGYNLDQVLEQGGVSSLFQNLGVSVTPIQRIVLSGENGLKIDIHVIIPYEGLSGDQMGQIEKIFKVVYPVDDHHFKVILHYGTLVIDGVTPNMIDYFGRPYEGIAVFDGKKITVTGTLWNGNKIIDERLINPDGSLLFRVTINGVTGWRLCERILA
Entries and their measured Efficacy (%) NLuc (- ATP) follow.
quantity measured: Efficacy (%) NLuc (- ATP)

O=C(NCCc1ccccc1)C1CCN(C(=O)c2ncn3c2COC(c2ccc(F)cc2)C3)CC1 (stereo not shown) [NCGC00449826-01]: 0.00
CCCCNC(=O)C1CCN(C(=O)c2ncn3c2COC(c2ccc(OC)cc2)C3)CC1 (stereo not shown) [NCGC00449864-01]: 0.00
O=C(NCc1cccs1)C1CCN(C(=O)c2ncn3c2COC(c2ccccc2)C3)CC1 (stereo not shown) [NCGC00449792-01]: 0.00
O=C(NCc1ccc(F)cc1)C1CCN(C(=O)c2ncn3c2COC(c2ccc(Cl)cc2)C3)CC1 (stereo not shown) [NCGC00449852-01]: 0.00
CCCCNC(=O)C1CCN(C(=O)c2ncn3c2COC(c2ccccc2)C3)CC1 (stereo not shown) [NCGC00449772-01]: 0.00
O=C(Nc1ccc(F)c(F)c1)C1CCN(C(=O)c2ncn3c2COC(c2ccccc2)C3)CC1 (stereo not shown) [NCGC00449916-01]: 0.00
O=C(NCCCc1ccccc1)C1CCN(C(=O)c2ncn3c2COC(c2ccc(F)cc2)C3)CC1 (stereo not shown) [NCGC00449829-01]: -7.00
CCc1ccc(NC(=O)C2CCN(C(=O)c3ncn4c3COC(c3ccccc3)C4)CC2)cc1 (stereo not shown) [NCGC00449907-01]: 0.00
COc1ccc(NC(=O)C2CCN(C(=O)c3ncn4c3COC(c3ccccc3)C4)CC2)cc1Cl (stereo not shown) [NCGC00449919-01]: -11.50
O=C(NC1CCCCCCC1)C1CCN(C(=O)c2ncn3c2COC(c2ccccc2)C3)CC1 (stereo not shown) [NCGC00449770-01]: 0.00
O=C(NCc1ccccc1F)C1CCN(C(=O)c2ncn3c2COC(c2ccc(Cl)cc2)C3)CC1 (stereo not shown) [NCGC00449851-01]: 0.00
Cc1ccc(C2Cn3cnc(C(=O)N4CCC(C(=O)NC(C)c5ccccc5)CC4)c3CO2)cc1 (stereo not shown) [NCGC00449895-01]: -8.50
CC(NC(=O)C1CCN(C(=O)c2ncn3c2COC(c2ccc(F)cc2)C3)CC1)c1ccc(F)cc1 (stereo not shown) [NCGC00449825-01]: 0.00
O=C(NC1CCCC1)C1CCN(C(=O)c2ncn3c2COC(c2ccc(Cl)cc2)C3)CC1 (stereo not shown) [NCGC00449843-01]: 0.00
COc1cccc(CNC(=O)C2CCN(C(=O)c3ncn4c3COC(c3ccccc3)C4)CC2)c1 (stereo not shown) [NCGC00449777-01]: 0.00
COc1ccc(C2Cn3cnc(C(=O)N4CCC(C(=O)NCc5ccccc5)CC4)c3CO2)cc1 (stereo not shown) [NCGC00449865-01]: 0.00
